# Test system: HEK-293T
# Method Description: Multiplex assay against HEK293T
# Type: toxicity, cell-based
# Experimental Parameters: human, 48 h, 10 µM, compound concentration 10 uM, replicate 1
Mark Y only for Population Pyknosed Nuclei (%) values smaller than 9%; exact matches and larger values are N.

>>> answer_label("CCCCC(=O)N(Cc1ccc(-c2ccccc2-c2nnn[nH]2)cc1)[C@H](C(=O)O)C(C)C")
"Y"
>>> answer_label("CC(/C=C1\\SC(=S)N(CCCC(=O)Nc2ccc(C(=O)O)c(O)c2)C1=O)=C\\c1ccccc1")
"N"
>>> answer_label("CC(C)(C)c1cc(NC(=O)Nc2ccc(-c3cn4c(n3)sc3cc(OCCN5CCOCC5)ccc34)cc2)no1 [QUIZARTINIB]")
"N"
>>> answer_label("Cc1noc(-c2ccc(-c3ccc(CC(=O)O)cc3)cc2)c1NC(=O)O[C@H](C)c1ccccc1Cl")
"N"
>>> answer_label("O=C(CCCc1ccccc1)Nc1nc2ccccc2c(=O)s1")
"Y"
>>> answer_label("Cc1cccc(NC(=O)CN2CCC(c3ccccn3)CC2)c1.Cl.Cl")
"N"
>>> answer_label("N#Cc1cc(F)cc(-c2nc(-c3ccc(F)cn3)no2)c1")
"Y"
>>> answer_label("CC(C)COc1ccc(CNC(=O)N(Cc2ccc(F)cc2)C2CCN(C)CC2)cc1 [PIMAVANSERIN]")
"N"

====

# System: HEK-293T
# Method Description: Multiplex assay against HEK293T
# Format: toxicity, cell-based
# Experimental Parameters: human, 48 h, 1 µM, compound concentration 1 uM, replicate 1
Property: Population Membrane Permeable-Phenotype (%)

>>> test_result("Cc1sc2c(c1C)C(c1ccc(Cl)cc1)=N[C@@H](CC(=O)NCCCCCCCCNC(=O)COc1cccc3c1C(=O)N(C1CCC(=O)NC1=O)C3=O)c1nnc(C)n1-2 (some centres undefined)")
0
>>> test_result("COC[C@@H](c1ccc(C(F)(F)F)cc1)N1CCN(C2(C)CCN(C(=O)c3c(C)ncnc3C)CC2)C[C@@H]1C.O=C(O)/C=C\\C(=O)O [VICRIVIROC MALEATE]")
1
>>> test_result("COc1cccc2c1c(NS(=O)(=O)c1ccc(Cl)s1)nn2Cc1cccc(CNC(=O)C(C)(C)O)c1")
0
>>> test_result("O=C(NCCN1CCC(n2c(=O)[nH]c3cc(Cl)ccc32)CC1)c1ccc(F)cc1 [HALOPEMIDE]")
1

====

Listed below: Population Apoptotic (%) values for each entry.
# Tested on: Fibroblast
# Method Description: Multiplex assay against human fibroblast
# Format: toxicity, cell-based
# Experimental Parameters: 48 h, 10 µM, compound concentration 10 uM, replicate 2
Property: Population Apoptotic (%)

>>> test_result("CC(C)COc1ccc(CNC(=O)N(Cc2ccc(F)cc2)C2CCN(C)CC2)cc1")
"75%"
>>> test_result("Cl.N=C(N)NC(=O)Cc1c(Cl)cccc1Cl [GUANFACINE HYDROCHLORIDE]")
"45%"
>>> test_result("CC(/C=C1\\SC(=S)N(CCCC(=O)Nc2ccc(C(=O)O)c(O)c2)C1=O)=C\\c1ccccc1")
"59%"
>>> test_result("CCCOc1ccc2[nH]cc(C3=CCNCC3)c2n1.Cl")
"60%"
>>> test_result("COC[C@@H](c1ccc(C(F)(F)F)cc1)N1CCN(C2(C)CCN(C(=O)c3c(C)ncnc3C)CC2)C[C@@H]1C.O=C(O)/C=C\\C(=O)O [VICRIVIROC MALEATE]")
"53%"
>>> test_result("NCCc1cn(S(=O)(=O)c2c(Cl)nc3sccn23)c2ccccc12.O=C(O)C(=O)O")
"75%"
>>> test_result("CC[C@@H](C)Nc1nc(C)nc2c(-c3ccc(OC)nc3C)c(C)nn12")
"52%"
>>> test_result("CN[C@@H](C)C(=O)N[C@H](C(=O)N1CCC[C@H]1C(=O)Nc1snnc1-c1ccccc1)C1CCCCC1")
"44%"
>>> test_result("Cc1cccc(NC(=O)CN2CCC(c3ccccn3)CC2)c1.Cl.Cl")
"28%"
>>> test_result("CC(C)c1noc(N2CCC(COc3ccc(-c4ccc(S(C)(=O)=O)cc4)nc3)CC2)n1")
"50%"
>>> test_result("Cc1noc(-c2ccc(-c3ccc(CC(=O)O)cc3)cc2)c1NC(=O)O[C@H](C)c1ccccc1Cl")
"39%"
>>> test_result("Cc1sc2c(c1C)C(c1ccc(Cl)cc1)=N[C@@H](CC(=O)NCCCCCCCCNC(=O)COc1cccc3c1C(=O)N(C1CCC(=O)NC1=O)C3=O)c1nnc(C)n1-2 (stereo partly drawn)")
"57%"
>>> test_result("CCCCC(=O)N(Cc1ccc(-c2ccccc2-c2nnn[nH]2)cc1)[C@H](C(=O)O)C(C)C")
"57%"
